System: PDE4 from human U-937 cells
Experiment: PDE4 Inhibition Assay
Format: biochemical
Settings: 1 μM cAMP, [3H]-cAMP, read-out: Potency Class (Inhibitory Concentration) in the PDE4 assay
// values below are reported IC50
Experimental Endpoint: IC50

{"Molecular String": "COc1ccc(N2CCN(C(=O)C(C)(C)O)[C@@H](Cc3ccccc3)C2)cc1OC1CCCC1", "Measured Target": "PDE4 from human U-937 cells", "Experimental Endpoint": "IC50", "Observed Value": "200 to 1000 nM"}
{"Molecular String": "COc1ccc(N2CCN(C(=O)Cc3cc[nH]c3)[C@@H](Cc3ccccc3)C2)cc1OC(C)C", "Measured Target": "PDE4 from human U-937 cells", "Experimental Endpoint": "IC50", "Observed Value": "< 200 nM"}
{"Molecular String": "COc1ccc(N2CCN(C(C)=O)[C@@H](CN3CCc4ccccc4C3)C2)cc1OC1CCCC1", "Measured Target": "PDE4 from human U-937 cells", "Experimental Endpoint": "IC50", "Observed Value": "< 200 nM"}
{"Molecular String": "COc1ccc(N2CCN(CC(=O)O)[C@@H](Cc3ccccc3)C2)cc1OC(C)C", "Measured Target": "PDE4 from human U-937 cells", "Experimental Endpoint": "IC50", "Observed Value": "200 to 1000 nM"}

* * *

Test system: PDE4 from human U-937 cells
Experiment: PDE4 Inhibition Assay
Format: biochemical
Settings: 1 μM cAMP, [3H]-cAMP, read-out: Potency Class (Inhibitory Concentration) in the PDE4 assay

{"Compound": "COc1ccc(N2CCN(C(=O)C3CCC(=O)N3)[C@@H](Cc3ccccc3)C2)cc1OC1CCCC1 (mixture of isomers) [Compound 285]", "IC50": "0.2 to 1 µM"}
{"Compound": "COc1ccc(N2CCN(C(=O)C(=O)c3ccco3)[C@@H](Cc3ccccc3)C2)cc1OC1CCCC1 [Compound 302]", "IC50": "0.2 to 1 µM"}
{"Compound": "COc1ccc(N2CCN(C(=O)Cc3c[nH]cn3)[C@@H](Cc3ccccc3)C2)cc1OC(F)F [Compound 347]", "IC50": "> 1 µM"}
{"Compound": "COc1ccc(N2CCN(C(=O)Cn3ccnn3)[C@@H](Cc3ccccc3)C2)cc1OC1CCCC1 [Compound 334]", "IC50": "> 1 µM"}
{"Compound": "COc1ccc(N2CCN(C(=O)Cc3ccccn3)[C@@H](Cc3ccccc3)C2)cc1OC(C)C [Compound 341]", "IC50": "0.2 to 1 µM"}
{"Compound": "COc1ccc(N2CCN(C(=O)Cc3cnccn3)[C@@H](Cc3ccccc3)C2)cc1OC1CCCC1 [Compound 387]", "IC50": "0.2 to 1 µM"}
{"Compound": "COc1ccc(N2CCN(C(=O)Cc3ncccn3)[C@@H](Cc3ccccc3)C2)cc1OC1CCCC1 [Compound 388]", "IC50": "< 0.2 µM"}
{"Compound": "COc1ccc(N2CCN(C(C)=O)[C@@H](CN3CCOCC3)C2)cc1OC1CCCC1 [Compound 250]", "IC50": "> 1 µM"}
{"Compound": "COc1ccc(N2CCN(C(=O)Cc3ccc[nH]3)[C@@H](Cc3ccccc3)C2)cc1OC1CCCC1 [Compound 306]", "IC50": "0.2 to 1 µM"}
{"Compound": "CCc1nn(C(C)C)c2cc(N3CCN(CC(N)=O)[C@@H](Cc4ccccc4)C3)ccc12 [Compound 383]", "IC50": "> 1 µM"}
{"Compound": "CCC(=O)N1CCN(c2ccc(OC)c(OC3CCCC3)c2)C[C@@H]1Cc1ccccc1 [Compound 244]", "IC50": "0.2 to 1 µM"}
{"Compound": "CNCCC(=O)N1CCN(c2ccc(OC)c(OC3CCC3)c2)C[C@@H]1Cc1ccccc1 [Compound 348]", "IC50": "> 1 µM"}
{"Compound": "COc1ccc(N2CCN(Cc3sc(C)nc3C)[C@@H](Cc3ccccc3)C2)cc1OC1CCCC1 [Compound 359]", "IC50": "> 1 µM"}
{"Compound": "COc1ccc(N2CCN(C(=O)c3ccc(CO)cc3)[C@@H](Cc3ccccc3)C2)cc1OC1CCCC1 [Compound 360]", "IC50": "> 1 µM"}
{"Compound": "COc1ccc(N2CCN(CCC(N)=O)[C@@H](Cc3ccccc3)C2)cc1OC(C)C [Compound 272]", "IC50": "0.2 to 1 µM"}
{"Compound": "COc1ccc(N2CCN(C(=O)Cc3sc(C)nc3C)[C@@H](Cc3ccccc3)C2)cc1OC1CCCC1 [Compound 298]", "IC50": "> 1 µM"}

* * *

System: PDE4 from human U-937 cells
Assay: PDE4 Inhibition Assay
Type: biochemical
Details: 1 μM cAMP, [3H]-cAMP, read-out: Potency Class (Inhibitory Concentration) in the PDE4 assay
Experimental Endpoint: IC50

{"Molecular String": "COc1ccc(N2CCN(C(=O)Cc3cncs3)[C@@H](Cc3ccccc3)C2)cc1OC1CCCC1", "Measured Target": "PDE4 from human U-937 cells", "Observed Value": "200 to 1000 nM"}
{"Molecular String": "Cc1nc(CC(=O)N2CCN(c3ccc(OC(F)F)c(OC4CCC4)c3)C[C@@H]2Cc2ccccc2)n[nH]1", "Measured Target": "PDE4 from human U-937 cells", "Observed Value": "< 200 nM"}
{"Molecular String": "CC(C)C[C@H]1CN(c2ccc(OC(F)F)c(OC3CCCC3)c2)CCN1C(=O)Cc1c[nH]cn1", "Measured Target": "PDE4 from human U-937 cells", "Observed Value": "200 to 1000 nM"}
{"Molecular String": "CCc1nn(C2CCC2)c2cc(N3CCN(C(=O)Cc4n[nH]c(N)n4)[C@@H](Cc4ccccc4)C3)ccc12", "Measured Target": "PDE4 from human U-937 cells", "Observed Value": "< 200 nM"}
